- Tested on: MCF7 breast
- method: NCI-60 one-dose screen, 48 h (100 = growth as untreated, 0 = no growth, -100 = all killed)
- protocol_conditions: 10 µM
About 83,000 compounds went through this panel and 20% of them were active in at least one assay; those are over-represented in the sample as a whole.
endpoint_label: growth (%)

* CC(C)(C)CC(N)=O | 85.9
* COc1ccc(C(=O)/C=C/c2ccc(OCc3cccc(C(F)(F)F)c3)c(OC)c2)cc1OC | 40
* CC[C@]12CN3CCc4c([nH]c5ccccc45)[C@@](C(=O)OC)(c4cc5c(cc4OC)N(C)[C@H]4[C@@](O)(C(=O)OC)[C@H](OC(C)=O)[C@]6(CC)C=CCN7CC[C@]54[C@@H]76)CC(C3)[C@H]1O2 (some centres undefined) | 15.7
* CC(=O)/C=C/c1ccc(N(CCO)Cc2ccc(C(C)(C)C)cc2)cc1 | 62.9

----------
- System: UACC-257 melanoma
- method: NCI-60 one-dose screen, 48 h
- protocol_conditions: 10 µM unless noted
The panel holds about 83,000 compounds, 20% with a hit somewhere; the sample as a whole holds those more often. Active and inactive are the calls of the source. How the source made its calls: active means growth percent below 10; inactive means the rest.
Possible outcomes: active, inactive

- COc1ccc(CCNC(=O)COc2cc3c(Nc4ccc(F)c(Cl)c4)ncnc3cc2OC)cc1OC: inactive
- COc1ccccc1/C=C1\COc2ccc(O)c(O)c2C1=O: inactive
- O=C1/C(=C/c2ccccc2)CN(C(=O)C(Cl)Cl)C/C1=C\c1ccccc1: inactive
- CCOC(=O)C(=Cc1ccc(C#N)cc1)C(=O)OCC: inactive
- COc1cc(NS(=O)(=O)C(C)C)cc(-c2cc(-c3ccc(N4CCNCC4)cc3)cnc2N)c1: inactive
- CNC(=O)c1cc(Oc2ccc3nc(NC(=O)Nc4ccc(C(F)(F)F)cc4)sc3c2)ccn1: inactive
- O=S(=O)(Nc1cc(Sc2cccc3cccnc23)c(O)c2ccccc12)c1ccc(F)cc1: active
- C/C=C(\C)C(=O)N[C@H]1CC[C@]2(C)C3CC[C@@]4(C)C(CC[C@@H]4C(C)N(C)C)C3CCC2[C@H]1OC(C)=O (stereo not given in full): active
- CCCCCCCCCCCCC[C@H](O)C[C@H](O)[C@H](C)N: inactive
- O=C(Nc1ncc(Cc2cccc(C(F)(F)F)c2)s1)c1ccc(-n2cnnn2)cc1: inactive

----------
- System: SK-OV-3 ovarian
- method: NCI-60 one-dose screen, 48 h
- protocol_conditions: 10 µM unless noted
Compounds without any hit were thinned out: in the full panel of roughly 83,000, 20% have a hit. Calls of active or inactive are those of the source. The calls were made as follows: active = growth percent below 10; inactive = the rest.
Outcomes: class 1 (active), class 0 (inactive)

- O=C1/C(=C/c2ccc(F)c(F)c2)CN(C(=O)C(Cl)Cl)C/C1=C\c1ccc(F)c(F)c1: class 1
- Cc1c(C(C)(C)O)cn2ncnc(Oc3ccc(NC(=O)Nc4ccc(Cl)c(C(F)(F)F)c4)cc3)c12: class 0
- COc1ccc(-c2ccc(-c3ccc(C(=N)N)cn3)o2)cc1Cl: class 0
- COc1cc(CO)cc2cc3ccccc3nc12: class 0
- CCN1CCN(C(=O)[C@]23CC[C@@H](C)[C@H](C)[C@@H]2C2=CC[C@@H]4[C@@]5(C)CCC(=O)C(C)(C)[C@@H]5CC[C@@]4(C)[C@]2(C)CC3)CC1: class 0
- O=C(NCCCN1CCCCC1)c1ccc(-c2nc3ccc4[nH]ncc4c3c3c2CCCC3)cc1: class 0
- N#C/C(=C\c1ccc(Br)cc1)n1nnc2c(F)cccc21: class 0
- O=C1C(N2CCOCC2)=C(I)C(=O)c2ncccc21: class 0
- CCNC(=S)n1nc(SC)c(C(=O)OCC)c1N: class 0
- CCOc1nc(-c2ccccc2)cc2c(O)c(C(=O)N/N=C/c3ccc(N(C)C)cc3)[nH]c(=O)c12: class 0
- COC(=O)c1c2c(c(C)[n+]([O-])c1C)C(=O)C(NCCN1CCOCC1)=CC2=O: class 0
- COc1ccccc1/C=C1\COc2ccc(O)c(O)c2C1=O: class 0
- Nc1c(C(=O)Nc2ccncc2)sc2nc3c(cc12)CCCCCCCC3: class 1
- CN1Cn2c(ccc2C(F)(F)F)C(=O)CS1(=O)=O: class 0
- Cn1ccnc1CN1CCSC(C(=O)Nc2ccccc2)C1 (configuration not stated): class 0
- COC(=O)c1nc(-c2ccc(C)cc2)oc1Sc1ccc(C)cc1: class 0
- Cc1ccc(Cl)cc1N1CCN(C(=O)[C@@H]2C[C@@H]2c2ccc(F)cc2)CC1: class 0

----------
- System: DU-145 prostate
- method: NCI-60 one-dose screen, 48 h (100 = growth as untreated, 0 = no growth, -100 = all killed)
- protocol_conditions: 10 µM unless noted
- Method: Cells are grown in 96 well plates and exposed to the test compound for 48 hours. Compounds are tested at a single concentration, which is 10^-5 M for most compounds. The reported endpoint is percent growth (GI% or GIPRCNT), where numbers from 0 - 100% represent growth inhibition, and numbers from -100% - 0 represent cell death. For example, a value of 40 represents 60% growth inhibition. A value of 0 means no net growth occurred over the course of the experiment. […]
Compounds without any hit were thinned out: in the full panel of roughly 83,000, 20% have a hit.
hey, just use 1 if measured growth is less than 40%, otherwise -1

- COc1cc(/C=C2\CCC/C(=C\c3cc(CN4CCCC4)c(O)c(OC)c3)C2=O)cc(CN2CCCC2)c1O: 1
- C[C@@H]1O[C@@H](O[C@H]2[C@@H](OC(=O)[C@]34CCC(C)(C)C[C@H]3C3=CC[C@@H]5[C@@]6(C)C[C@H](O)[C@H](O[C@@H]7O[C@H](CO)[C@@H](O)[C@H](O)[C@H]7O)[C@@](C)(CO)[C@@H]6CC[C@@]5(C)[C@]3(C)C[C@H]4O)OC[C@@H](O)[C@@H]2O)[C@H](O)[C@H](O[C@@H]2OC[C@@H](O)[C@H](O[C@@H]3OC[C@](O)(CO)[C@H]3O[C@@H]3OC[C@@H](O)[C@H](O)[C@H]3O)[C@H]2O)[C@H]1O[C@@H]1OC[C@](O)(CO)[C@H]1O: -1
- CC[C@]1(O)CC2CN(CCc3c([nH]c4ccccc34)C(C(=O)OC)(c3cc4c(cc3OC)N(C=O)[C@H]3[C@@](O)(C(=O)OC)[C@H](OC(C)=O)[C@]5(CC)[C@@H]6C[C@@H]6CN6CC[C@]43[C@@H]65)C2)C1 (stereo not given in full): 1
- Nc1ccc(-c2nc3ccc4[nH]ncc4c3c3c2CCCC3)cc1F: 1
- Cc1c(CC(=O)OCCO)cc(-c2ccc(Cl)cc2)n1-c1ccccc1: -1

----------
- Test system: CCRF-CEM leukemia
- method: NCI-60 one-dose screen, 48 h (100 = growth as untreated, 0 = no growth, -100 = all killed)
- protocol_conditions: 10 µM unless noted
About 83,000 compounds went through this panel and 20% of them were active in at least one assay; those are over-represented in the sample as a whole. Activity calls are given as the source filed them. Rule for the calls: active = growth percent below 10; inactive = the rest.
endpoint_label: growth

- COc1ccc(Nc2ncnc3ccc(-c4cncc(NS(C)(=O)=O)c4)cc23)cc1Cl: 6.14% (active)
- C=C(C)[C@@H]1CC[C@]2(C(=O)N3CCN(C)CC3)CC[C@]3(C)[C@H](CC[C@@H]4[C@@]5(C)CC(CCCNC(C)=O)(CCCNC(C)=O)[C@H](OC(C)=O)C(C)(C)[C@@H]5CC[C@]43C)[C@@H]12: 91.8% (inactive)
- Cn1cc(-c2nc3c(F)cc4[nH]ncc4c3c3c2CCCC3)c(C(F)F)n1: 4.61% (active)
- N#Cc1ccccc1-c1ccc(Cn2c(-c3cscn3)nc3c(Cl)cccc32)cc1: 65.8% (inactive)
- CN(Cc1ccccc1)c1nc(Cl)c(C2CC(c3ccc(F)cc3)=NN2C=O)s1 (stereo not given): 95.6% (inactive)
- O=c1c(/C=C/c2ccco2)nnc2sc(Nc3ccc(Cl)cc3)nn12: 98% (inactive)
- O=C(CCCCCCCCC(=O)N/N=C\c1ccccc1O)N/N=C\c1ccccc1O: 10.8% (inactive)
- COc1cc(/C=C(/c2ccccc2)[N+](=O)[O-])c(OC)c2c1OCO2: -6.26% (active)
- Cc1ccccc1SSc1ccccc1C: 79% (inactive)
- Cc1ccc(C(=O)Nc2ccc(CN3CCN(C)CC3)c(C(F)(F)F)c2)cc1C#Cc1cnc(N)cc1C#N: -8.11% (active)
- CN1CCN(Cc2ccc(NC(=O)c3nc4ccc5[nH]ncc5c4c4c3CCCC4)cc2C(F)(F)F)CC1: -11.1% (active)
- COc1ccc(C/C(C)=C(\c2ccc(O)cc2)c2ccc(OCCCN(C)C)cc2)cc1: 73.9% (inactive)
- COc1ccc(/C(C)=C(\c2ccc(OCCN3CCCCCC3)cc2)c2ccc(OC(=O)C3CCCCC3)cc2)cc1: -31.5% (active)
- Nc1ccc(-c2ccc(N)c(Br)c2)cc1Br: 19.6% (inactive)
- COc1cc(-c2nc3occn3c2-c2ccnc(NCCCNS(=O)(=O)c3ccc(O)cc3)n2)ccc1F: 75.4% (inactive)
- COc1c(O)c(O)cc2c3c(oc12)CC(c1ccc2c(c1)OCO2)CC3=O (stereo not given): 56.7% (inactive)
- Clc1nccc2c(-c3csc(-c4c[nH]c5ccc(Br)cc45)n3)c[nH]c12: 20.1% (inactive)
- N#CC(Cc1cccc2ccccc12)c1cc2ccccc2[nH]1 (stereo not given): -47% (active)
- CCCCCCCCCCCCCCCCCCOc1cccc(CC(=O)OCC[N+](CC)(CC)CC)c1: 32.5% (inactive)
- Cc1c(C(C)(C)O)cn2ncnc(Oc3ccc(NC(=O)Nc4ccc(Cl)c(C(F)(F)F)c4)cc3)c12: 34.1% (inactive)
